conditions: buffer; pH 7.4; 200.0 µM
I'd appreciate it if you could supply solubility kinetic values for the items below.

Read off the recorded solubility kinetic for COC(=O)c1ccccc1S(=O)(=O)N1CCC(C(=O)Nc2ccc(N3CCOCC3)cc2)CC1 > 73.1 µg/mL

Read off the recorded solubility kinetic for Cc1nc2ccccn2c1C(=O)NC1CCCC1 > 36.5 µg/mL

Read off the recorded solubility kinetic for Cc1ccc2nc(CCc3ccc(N)cc3)[nH]c2c1.Cl > 48.6 µg/mL

Read off the recorded solubility kinetic for CC1(C)CC(=O)C=C(Nc2ccccc2N)C1 > 34.5 µg/mL

Read off the recorded solubility kinetic for CCCN1C2CCCC1CC(NC(=O)c1cccc(OC)c1)C2 (stereo not given) > 47.5 µg/mL

Read off the recorded solubility kinetic for Cn1cc(S(=O)(=O)NCC2CCCO2)c(=O)n(C)c1=O (stereo not given) > 45.5 µg/mL

Read off the recorded solubility kinetic for CN(C)c1ccc(/C=N/O)cc1 > 24.6 µg/mL

Read off the recorded solubility kinetic for Cc1ccccc1NC(=O)C1CC(=O)N(Cc2ccccc2)C1 (stereo not given) > 46.3 µg/mL

Read off the recorded solubility kinetic for COc1ccc(NC(=O)CN2C(=O)C(=O)N(C3CCCC3)C2=O)c(OC)c1 > 56.3 µg/mL

Read off the recorded solubility kinetic for Br.COc1ccc(C2=CSC3=NCCN23)cc1 > 47 µg/mL

Read off the recorded solubility kinetic for Cc1ccc(C)c(NC(=O)CCN2CCCCC2)c1 > 39.1 µg/mL

Read off the recorded solubility kinetic for CCN1CCN(CCC(=O)Nc2ccc(F)c(F)c2)CC1 > 44.6 µg/mL

Read off the recorded solubility kinetic for COc1ccc(NS(=O)(=O)c2cccc(C(=O)Nc3ccccc3C(=O)O)c2)cc1 > 64 µg/mL

Read off the recorded solubility kinetic for CN1CCN(C(=O)c2ccc(Cl)cc2)CC1 > 35.8 µg/mL

Read off the recorded solubility kinetic for [O-][n+]1c2ccccc2[n+]([O-])c2cc(O)ccc21 > 34.2 µg/mL

Read off the recorded solubility kinetic for Cc1cc(-c2ccccc2)nc(N(C)C)c1S(C)(=O)=O 25 µg/mL

Read off the recorded solubility kinetic for S=C(NCc1ccco1)Nc1ccc2c(c1)OCCO2 > 43.6 µg/mL

Read off the recorded solubility kinetic for NC(=O)C1Cc2ccccc2CN1S(=O)(=O)c1ccc(Cl)s1 (stereo not given) > 53.5 µg/mL

Read off the recorded solubility kinetic for CCc1ccc(-n2c([O-])c(C(C)=O)c(=O)[nH]c2=O)cc1.C[NH+](C)C 38.5 µg/mL

Read off the recorded solubility kinetic for O=C(Nc1ccccc1)OCCOc1cccc(Br)c1 6.6 µg/mL

Read off the recorded solubility kinetic for NC(=O)Cn1c(=O)n(-c2ccccc2)c(=O)c2oc3ccccc3c21 2.6 µg/mL

Read off the recorded solubility kinetic for NC(=S)Nc1cccc(F)c1 > 25.5 µg/mL

Read off the recorded solubility kinetic for Cc1c(C(=O)OCC(=O)NCC2CCCO2)oc2ccccc12 (stereo not given) > 47.6 µg/mL

Read off the recorded solubility kinetic for CN(C)c1ccc(S(=O)(=O)N2CCC(Cc3ccccc3)CC2)cn1 2 µg/mL

Read off the recorded solubility kinetic for CC(=O)Nc1c2c(nn1-c1ccccc1C)CS(=O)C2 (stereo not given) > 43.4 µg/mL

----------
settings: buffer; pH 7.4; 200.0 µM
Reported property: solubility kinetic

Read off the recorded solubility kinetic for Cc1ccc(C(=O)Nc2cccc3cccnc23)cc1C < 0.3 µg/mL

Read off the recorded solubility kinetic for CN(Cc1ccccc1)C(=O)COC(=O)c1cc2ccccc2oc1=O > 52.7 µg/mL

Read off the recorded solubility kinetic for O=S(=O)(NC1Cc2ccccc2C1)c1ccccc1 > 41 µg/mL

Read off the recorded solubility kinetic for CC(=O)c1c(OC(=O)c2cccc(Cl)c2)c2ccccc2n1C < 0.7 µg/mL

Read off the recorded solubility kinetic for COc1ccc(S(=O)(=O)NCc2cccnc2)cc1C > 43.9 µg/mL

Read off the recorded solubility kinetic for N#Cc1cccc(NC(=O)COC(=O)c2ccc[n+]([O-])c2)c1 > 44.6 µg/mL

Read off the recorded solubility kinetic for COc1cc(C(=O)Nc2cccc(C(C)=O)c2)cc(OC)c1OC > 49.4 µg/mL

Read off the recorded solubility kinetic for CCc1ccccc1NC(=O)N1CCc2ccccc2C1 > 42.1 µg/mL

Read off the recorded solubility kinetic for CSc1cccc(NC(=S)N2CCC(N(C)C3CCCC3)CC2)c1 > 54.5 µg/mL

Read off the recorded solubility kinetic for CC(C)NC(=S)N1CCCN(c2ncccc2[N+](=O)[O-])CC1 > 48.5 µg/mL

Read off the recorded solubility kinetic for O=C(NCCc1ccccc1)C1CC1 > 28.4 µg/mL

Read off the recorded solubility kinetic for CN1CCCC(OC(=O)c2ccc(C#N)cc2)C1.Cl (configuration not stated) > 42.1 µg/mL

Read off the recorded solubility kinetic for NC(=O)c1ccc(N=C2C(=O)Nc3ccc([N+](=O)[O-])cc32)cc1 13.1 µg/mL

Read off the recorded solubility kinetic for CC(C(=O)Nc1ccc(C#N)cc1)N(C)CC(=O)N(C)c1c(N)n(Cc2ccccc2)c(=O)[nH]c1=O (configuration not stated) > 73.4 µg/mL

Read off the recorded solubility kinetic for O=C(CS(=O)(=O)c1ccccc1)Nc1ccccn1 > 41.4 µg/mL

Read off the recorded solubility kinetic for CCC1(C)Cc2ccccc2-c2nc[nH]c(=O)c21 (configuration not stated) 2.8 µg/mL

Read off the recorded solubility kinetic for O=S(=O)(c1ccccc1)N1CCN(CCc2ccccc2)CC1 1.7 µg/mL

----------
details: buffer; pH 7.4; 200.0 µM
Reported property: solubility kinetic

Read off the recorded solubility kinetic for COC(=O)c1sccc1-n1cc(C#N)c(=O)n(C)c1=O > 43.7 µg/mL

Read off the recorded solubility kinetic for CN(C)Cc1nc2ccccc2c(=O)n1CC#N > 36.3 µg/mL

Read off the recorded solubility kinetic for COc1ccccc1C1CCN(Cc2cccc3ccccc23)CC1 < 0.7 µg/mL

Read off the recorded solubility kinetic for O=C(NCc1ccc(Cl)cc1)C1CCC(=O)N(C2CC2)C1 (stereo unspecified) > 46 µg/mL

Read off the recorded solubility kinetic for Nc1c(N(CCCO)C(=O)C2CCCCC2)c(=O)[nH]c(=O)n1Cc1ccccc1 > 60.1 µg/mL

Read off the recorded solubility kinetic for CCCCCCCn1c(C)nnc1-c1cnn(C)c1N > 41.5 µg/mL

Read off the recorded solubility kinetic for NC(=O)C1CCN(CC(=O)Nc2ccccc2N2CCOCC2)CC1 > 52 µg/mL

Read off the recorded solubility kinetic for CNC(=O)C1CC(=O)N(CCc2ccc(C)cc2)C1 (stereo unspecified) > 39.1 µg/mL

Read off the recorded solubility kinetic for COc1cc(C#N)c(N=C(SCC#N)N2CCOCC2)cc1OC > 52 µg/mL

Read off the recorded solubility kinetic for CC(=O)N1CCN(C(=O)COC(=O)/C=C/c2ccccc2[N+](=O)[O-])CC1 > 54.2 µg/mL

Read off the recorded solubility kinetic for CN(Cc1ccccc1)C(=O)c1cc(=O)[nH]c2ccccc12 > 43.9 µg/mL

----------
I'd appreciate it if you could supply solubility kinetic values for the items below.
conditions: buffer; pH 7.4; 200.0 µM

Read off the recorded solubility kinetic for Cc1cccc(N(C)S(=O)(=O)c2csc(C(N)=O)c2)c1 > 46.6 µg/mL

Read off the recorded solubility kinetic for Cc1ccccc1C(=O)NC(=S)N(C)CCc1ccccn1 > 47 µg/mL

Read off the recorded solubility kinetic for CC1CCCC(NC(=O)CCCn2c(=S)[nH]c3ccccc3c2=O)C1C (stereo unspecified) < 0.3 µg/mL

Read off the recorded solubility kinetic for CC1CCCC(C)N1C(=O)c1cc(-c2ccco2)on1 (stereo unspecified) > 41.1 µg/mL

Read off the recorded solubility kinetic for CC(=O)Nc1ccc(NC(=O)CC2CCCC2)cc1 > 39.1 µg/mL

Read off the recorded solubility kinetic for COC(=O)C1CCC(=S)N1C(=O)c1ccccc1 (stereo unspecified) > 39.5 µg/mL

----------
settings: buffer; pH 7.4; 200.0 µM
I'd appreciate it if you could supply solubility kinetic values for the items below.

Read off the recorded solubility kinetic for O=C(O)c1ccc(-n2c(/C=C/c3ccccc3)nc3ccccc3c2=O)cc1 > 55.3 µg/mL

Read off the recorded solubility kinetic for CCOC(=O)N[C@H](Cc1c[nH]c2ccccc12)C(=O)NC1CC1 > 47.3 µg/mL

Read off the recorded solubility kinetic for Cc1ccc(Cn2cccc(NS(C)(=O)=O)c2=O)cc1 > 43.9 µg/mL

Read off the recorded solubility kinetic for CC1CCCN(C(=O)c2ccc([N+](=O)[O-])o2)C1 (stereo not drawn) > 35.7 µg/mL

Read off the recorded solubility kinetic for COc1ccc([N+](=O)[O-])c(OC)c1C(=O)NC(=O)Nc1nc(C)nc(C)n1 > 56.4 µg/mL

Read off the recorded solubility kinetic for COc1cc(NC(=O)/C=C/c2ccccc2)c(C(=O)O)cc1OC > 49.1 µg/mL

Read off the recorded solubility kinetic for Cc1nc2c(C#N)c[nH]n2c(=O)c1CCO > 32.7 µg/mL

Read off the recorded solubility kinetic for COc1cccc(CNC(=O)CNC(=O)c2cccs2)c1 > 45.7 µg/mL
